target: humanized therapeutic monoclonal antibody IgG1 (hIgG1); assay: SPR (Biacore T200), mAb captured by anti-rabbit mAb on CM5, antigen 80-0 nM, 1:1 fit
READOUT TYPE: pKd
Worth noting: pKd values are minus log10 of concentrations stated in mol/L.

Observe how each entry below is paired with its result.
INSERT INTO measurements (binder, assay_value) VALUES
  ('rabbit anti-human IgG monoclonal antibody clone 16F5 (antibody, V domains shown) VH: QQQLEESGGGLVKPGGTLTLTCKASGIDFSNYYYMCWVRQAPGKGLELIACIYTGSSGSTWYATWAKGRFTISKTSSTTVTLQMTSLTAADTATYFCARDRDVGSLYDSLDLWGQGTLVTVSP VL: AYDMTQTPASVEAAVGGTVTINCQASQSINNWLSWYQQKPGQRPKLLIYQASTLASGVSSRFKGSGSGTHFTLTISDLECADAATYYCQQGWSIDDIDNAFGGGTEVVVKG', 9.90),
  ('rabbit anti-human IgG monoclonal antibody clone 2C5 (antibody, V domains shown) VH: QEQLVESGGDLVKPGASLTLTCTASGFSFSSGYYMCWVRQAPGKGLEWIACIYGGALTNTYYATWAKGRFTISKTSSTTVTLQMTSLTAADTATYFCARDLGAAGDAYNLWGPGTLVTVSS VL: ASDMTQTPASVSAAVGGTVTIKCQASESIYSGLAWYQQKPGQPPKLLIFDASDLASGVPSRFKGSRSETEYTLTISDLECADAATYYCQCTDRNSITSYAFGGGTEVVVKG', 9.56);

Which pKd is listed for rabbit anti-human IgG monoclonal antibody clone 11F9 (antibody, V domains shown) VH: QQQLEESGGGLVQPEGSLTLTCIASGFSFSSSHWICWVRQAPGKGLEWIACMSTSSGSTYDANWAKGRFTISKTSSTTVTLQMTSLTAADTATYFCARDVGGSTTYFDLWGPGTLVTVSS VL: AYDMTQTPASVSEPVGGTVTIKCQASQSISNELSWYQQKPGQPPKLLIYRASTLASGVPSRFKGSGSGTQFTLTINGVECADAATYYCQQGYSISNVDNTFGGGTEVVVKG ?
9.21
